Values were extracted from paper PMC5697638.

testTarget: hPI3Kγ (PIK3CG) (Homo sapiens)
Construct: purchased ProQinase, Germany 1163‐0000‐1
Sequence (P48736 whole entry): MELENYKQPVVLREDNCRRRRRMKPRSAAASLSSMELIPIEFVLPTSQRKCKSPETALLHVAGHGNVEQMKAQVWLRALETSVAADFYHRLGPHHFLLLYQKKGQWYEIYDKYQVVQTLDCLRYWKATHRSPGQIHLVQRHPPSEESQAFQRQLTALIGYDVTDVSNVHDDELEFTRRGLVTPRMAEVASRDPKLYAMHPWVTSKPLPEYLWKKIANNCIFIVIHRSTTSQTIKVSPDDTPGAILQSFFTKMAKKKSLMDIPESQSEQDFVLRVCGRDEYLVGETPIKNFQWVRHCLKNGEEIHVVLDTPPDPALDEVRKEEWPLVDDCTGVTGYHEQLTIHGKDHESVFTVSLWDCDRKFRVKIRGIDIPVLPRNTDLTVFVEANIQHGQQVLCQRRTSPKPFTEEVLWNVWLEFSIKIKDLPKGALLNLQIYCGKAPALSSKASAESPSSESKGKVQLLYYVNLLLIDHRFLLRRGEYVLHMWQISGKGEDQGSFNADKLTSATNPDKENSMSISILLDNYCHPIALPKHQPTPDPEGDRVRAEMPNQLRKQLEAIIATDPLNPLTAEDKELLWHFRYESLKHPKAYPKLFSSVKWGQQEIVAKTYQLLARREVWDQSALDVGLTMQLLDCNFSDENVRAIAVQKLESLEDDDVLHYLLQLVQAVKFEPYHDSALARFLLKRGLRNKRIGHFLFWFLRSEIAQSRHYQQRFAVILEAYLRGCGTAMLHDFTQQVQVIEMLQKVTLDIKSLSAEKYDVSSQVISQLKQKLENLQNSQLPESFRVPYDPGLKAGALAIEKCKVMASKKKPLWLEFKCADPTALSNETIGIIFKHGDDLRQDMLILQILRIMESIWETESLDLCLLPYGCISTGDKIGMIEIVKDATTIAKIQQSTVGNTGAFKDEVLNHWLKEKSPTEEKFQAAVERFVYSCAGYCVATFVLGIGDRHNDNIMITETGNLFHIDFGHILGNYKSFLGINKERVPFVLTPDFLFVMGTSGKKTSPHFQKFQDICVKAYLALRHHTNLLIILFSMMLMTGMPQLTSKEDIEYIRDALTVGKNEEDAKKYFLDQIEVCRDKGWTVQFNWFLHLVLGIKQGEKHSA
procedureText: lipid kinase assay (ADP-Glo), PI3Kγ
Format: biochemical
measurementConditions: determined at 1 μM, at least triplicate; read-out: Inhibitory activity, PI3K isoform γ
Below, each entry is listed alongside its reported inhibition at 1 µM.

INSERT INTO assay_data (structure, testtarget, valuetype, measurement) VALUES
  ('O=c1cc(N2CCOCC2)[nH]c2c(-c3cn(Cc4ccccc4)nn3)cccc12', 'hPI3Kγ (PIK3CG) (Homo sapiens)', 'inhibition at 1 µM', '> 50%'),
  ('O=c1cc(N2CCOCC2)[nH]c2c(-c3cn(-c4cccc5ccccc45)nn3)cccc12', 'hPI3Kγ (PIK3CG) (Homo sapiens)', 'inhibition at 1 µM', '< 50%'),
  ('COc1ccc(-n2cc(-c3cccc4c(=O)cc(N5CCOCC5)[nH]c34)nn2)cc1', 'hPI3Kγ (PIK3CG) (Homo sapiens)', 'inhibition at 1 µM', '< 50%');

With those in mind, consider the next compound.
So, COc1cc(OC)cc(-n2cc(-c3cccc4c(=O)cc(N5CCOCC5)[nH]c34)nn2)c1 ? Its inhibition at 1 µM was < 50%
